Please respond with reported Activity for every item in the list.
Test system: Fibroblast
Experiment: Cytotoxicity against human fibroblasts assessed as cell death up to 100 uM after 24 hrs by lactate dehydrogenase assay
Assay type: cell-based

Lab book: Activity of `O=C(CCC(F)(F)C(F)(F)C(F)(F)C(F)(F)C(F)(F)C(F)(F)F)NCCCCCCCCCNC(=S)N1[C@@H]2CO[C@H]1[C@H](O)[C@@H](O)[C@@H]2O` noted as 45 to 75%

Lab book: Activity of `O=C(CCC(F)(F)C(F)(F)C(F)(F)C(F)(F)C(F)(F)C(F)(F)F)NCCCCNC(=S)N1[C@@H]2CO[C@H]1[C@H](O)[C@@H](O)[C@@H]2O` noted as 45 to 75%

----------
Molecular target: Lysosomal acid glucosylceramidase (Homo sapiens, UniProt P04062)
Sequence (P04062 whole entry): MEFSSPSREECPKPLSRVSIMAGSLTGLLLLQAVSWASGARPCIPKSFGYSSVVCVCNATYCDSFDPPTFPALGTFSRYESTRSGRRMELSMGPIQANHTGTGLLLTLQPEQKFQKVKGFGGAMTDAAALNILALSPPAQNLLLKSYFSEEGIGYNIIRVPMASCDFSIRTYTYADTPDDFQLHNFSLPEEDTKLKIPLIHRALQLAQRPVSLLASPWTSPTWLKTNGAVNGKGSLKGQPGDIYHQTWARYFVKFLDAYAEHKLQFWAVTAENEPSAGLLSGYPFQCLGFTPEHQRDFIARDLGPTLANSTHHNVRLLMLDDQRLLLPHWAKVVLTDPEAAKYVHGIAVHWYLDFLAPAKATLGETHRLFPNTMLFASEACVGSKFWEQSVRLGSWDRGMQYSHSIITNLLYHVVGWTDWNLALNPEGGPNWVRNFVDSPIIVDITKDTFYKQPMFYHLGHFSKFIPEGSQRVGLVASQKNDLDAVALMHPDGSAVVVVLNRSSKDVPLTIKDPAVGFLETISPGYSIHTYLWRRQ
Experiment: Inhibition of human GCase assessed as formation of 4-methylumbelliferone from […] at pH 7 by luminescence spectrophotometry
Please respond with reported Ki for every item in the list.
Output spec: scalar in µM, unitless text.

Lab book: Ki of `O=C(CCC(F)(F)C(F)(F)C(F)(F)C(F)(F)C(F)(F)C(F)(F)F)NCCCCCCCCCNC(=S)N1[C@@H]2CO[C@H]1[C@H](O)[C@@H](O)[C@@H]2O` noted as 4.1

Lab book: Ki of `O=C(CCC(F)(F)C(F)(F)C(F)(F)C(F)(F)F)NCCCCCCCCCNC(=S)N1[C@@H]2CO[C@H]1[C@H](O)[C@@H](O)[C@@H]2O` noted as 9.3

Lab book: Ki of `O=C(CCC(F)(F)C(F)(F)C(F)(F)C(F)(F)C(F)(F)C(F)(F)F)NCCCCNC(=S)N1[C@@H]2CO[C@H]1[C@H](O)[C@@H](O)[C@@H]2O` noted as 11.9

Lab book: Ki of `O=C(CCC(F)(F)C(F)(F)C(F)(F)C(F)(F)F)NCCCCNC(=S)N1[C@@H]2CO[C@H]1[C@H](O)[C@@H](O)[C@@H]2O` noted as 35

----------
Test: Critical micellar concentration of the compound measured after 1 hr by pyrene fluorescence excitation spectral analysis
Please respond with reported CMC for every item in the list.
Output spec: scalar in µM, unitless text.

Lab book: CMC of `O=C(CCC(F)(F)C(F)(F)C(F)(F)C(F)(F)F)NCCCCCCCCCNC(=S)N1[C@@H]2CO[C@H]1[C@H](O)[C@@H](O)[C@@H]2O` noted as 37.5

Lab book: CMC of `O=C(CCC(F)(F)C(F)(F)C(F)(F)C(F)(F)C(F)(F)C(F)(F)F)NCCCCCCCCCNC(=S)N1[C@@H]2CO[C@H]1[C@H](O)[C@@H](O)[C@@H]2O` noted as 15

Lab book: CMC of `O=C(CCC(F)(F)C(F)(F)C(F)(F)C(F)(F)C(F)(F)C(F)(F)F)NCCCCNC(=S)N1[C@@H]2CO[C@H]1[C@H](O)[C@@H](O)[C@@H]2O` noted as 31.6

Lab book: CMC of `O=C(CCC(F)(F)C(F)(F)C(F)(F)C(F)(F)F)NCCCCNC(=S)N1[C@@H]2CO[C@H]1[C@H](O)[C@@H](O)[C@@H]2O` noted as 393

----------
Molecular target: Lysosomal acid glucosylceramidase (Homo sapiens)
Assay: Inhibition of human GCase assessed as formation of 4-methylumbelliferone from […] at pH 7 in presence of beta-cyclodextrin by luminescence spectrophotometry
Please respond with reported pKi for every item in the list.
Value format note: pKi is -log10 of concentration (mol/L); just state the number.

Lab book: pKi of `O=C(CCC(F)(F)C(F)(F)C(F)(F)C(F)(F)F)NCCCCNC(=S)N1[C@@H]2CO[C@H]1[C@H](O)[C@@H](O)[C@@H]2O` noted as 6.52

Lab book: pKi of `O=C(CCC(F)(F)C(F)(F)C(F)(F)C(F)(F)C(F)(F)C(F)(F)F)NCCCCCCCCCNC(=S)N1[C@@H]2CO[C@H]1[C@H](O)[C@@H](O)[C@@H]2O` noted as 6.22

Lab book: pKi of `O=C(CCC(F)(F)C(F)(F)C(F)(F)C(F)(F)C(F)(F)C(F)(F)F)NCCCCNC(=S)N1[C@@H]2CO[C@H]1[C@H](O)[C@@H](O)[C@@H]2O` noted as 7.05

Lab book: pKi of `O=C(CCC(F)(F)C(F)(F)C(F)(F)C(F)(F)F)NCCCCCCCCCNC(=S)N1[C@@H]2CO[C@H]1[C@H](O)[C@@H](O)[C@@H]2O` noted as 6.05
